Tested on: MS2 coat protein
procedure_details: apparent KD of MS2 coat protein; higher = weaker reporter binding
recorded_conditions: Eterna round: R107; input ligand: tryptophan 2.4 mM
Classification field: enter condition met for apparent KD of MS2 coat protein values not below 60 nM, condition not met for values below it.

>  <polymer_sequence>
AAUUCCUAACAUGAGGAUCACCCAUGUGAAGGAGCGCCGAAUAAGGCAGGUAGGUCGCACAUGGAACCGCUACGAAAGUAGCAAA

>  <classification>
condition not met

$$$$
>  <polymer_sequence>
UAUCCACAUGAGGAUCACCCAUGUUAGGAAGGAGCGGUGGAUGCACCAGGUAGGUCGCCUAGCUGAGGACUGUCGGUGGAUUCGU [Exclusion - Arginine A (Freestyle 21)]

>  <classification>
condition met

$$$$
>  <polymer_sequence>
UUAUAUAUGCGAAGGAGCGGGAAAUAUAUAUAUAUAAUCCUAACAUGAGGAUCACCCAUGUCCCAGGUAGGUCGCGCAUAUAUGG [12.E]

>  <classification>
condition met

$$$$
>  <polymer_sequence>
CCUAACCGAUCGGCCGCCACUGACCGGUACCUCUUCGAAACCCGCCACAUGAGGAUCACCCAUGUCAGGACCGGGAUUGCACAGG [Inxeus]

>  <classification>
condition not met

$$$$
>  <polymer_sequence>
GGUCGCCAACAUGGGUCGGUGAAAUGGGAAGGAGCGAGCGAGAGCUCAGGUAGGUCGCCCAAACAUGAGGAUCACCCAUGUAAUA [SSArg-A #28 UUU adds V2]

>  <classification>
condition not met

$$$$
>  <polymer_sequence>
AUGCAUGUCAGAAGGAGCGUCAGUAACAUGAGGAUCACCCAUGUAACAUUGAAUUCGAUGAGACAGGUAGGUCGCUGAAUAGUAA [JR_SSArginiB_Sub019]

>  <classification>
condition not met

$$$$
>  <polymer_sequence>
GAUCUUGCGGGCGCCCGCAAGGUUGCGGAUACCAGCGAGAUUAAUCGCCCUUGGCAGCCGAACAUGAGGAUCACCCAUGUCGGAC [Same State - Theophylline A Attempt #2 (HarryS)]

>  <classification>
condition not met

$$$$
>  <polymer_sequence>
GGCCGAUGGUGCGAUACCAGCUUGAGUGUACUGGCCAGGUACAUGAGGAUCACCCAUGUAAGCCCUUGGCAGCGCGUCAAAGGCC [#1 Exclusion - Theophylline B Attempt #20 (HarryS)]

>  <classification>
condition not met

$$$$
>  <polymer_sequence>
UCGCUCGCCGCAAGGCGAGCGAGUUGCGAUACCAGCCCGGAAACGGGCCCUUGGCAGCGCACAUGAGGAUCACCCAUGUCAUGUU [#1 Exclusion - Theophylline A Attempt #4 (HarryS)]

>  <classification>
condition not met

$$$$
>  <polymer_sequence>
GGUCUGAAAACCGAUCAAAGAUCGGAAGAUACCAGAGGGUGAUCCCUCCCUUGGCAGCUUCACAUGAGGAUCACCCAUGUAGACC [Omei inspired #BothOrNeither]

>  <classification>
condition met

$$$$
>  <polymer_sequence>
UAUAUAGAUGGACGUCAUCUAGAUGCAGAAGGAGCGUAGGAAACUACAGGUAGGUCGCUGAGGUACAUGAGGAUCACCCAUGUAG [SSArg A #21 Slice of Pi]

>  <classification>
condition not met

$$$$

---

Tested on: K4 kissing-loop RNA reporter;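 note: bound reporter read as fluorescence of individual clusters on recovered sequencing chips by microscopy, with normalized cluster intensities fitted with a binding model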
procedure_details: apparent KD of K4 kissing-loop reporter; higher = weaker reporter binding
recorded_conditions: Eterna round: R107; input ligand: tryptophan 2.4 mM
Classification field: enter Yes for apparent KD of K4 kissing-loop reporter values not below 100 nM, No for values below it.

>  <polymer_sequence>
CAACAGCUUACGGCCGCCACUCCUUUAUAUGGUGCGCACCGUUGAGCUCUAGUGAUGUUGGUGCCGAGGACCGGGUAGGAAAGUA [theeternabot_sameState_KL_Trp_B_31]

>  <classification>
Yes

$$$$
>  <polymer_sequence>
GGAUAGGACAAAGGAUAUGGGCUAGGCAAGAAUAACUUGUCUAGCAAAUCCAUGAGGAGUGAUGUUCCAGAAGGUUGUCCUAUCG [FmnBX 1 A11+U75]

>  <classification>
Yes

$$$$
>  <polymer_sequence>
AUUAAUUUCAGAGGAUAUCGUGAUUUUAUUUAAUUUAUUCAUUUGUGCAGUGAUGUUGCUAAUAUUCGAGAAGGCUGAUUUAUAA [whbob_Ex_FMNB__2th224]

>  <classification>
No

$$$$
>  <polymer_sequence>
GCCCGAAAGGGCCGAAGUGUUUGCGGCGAUCGAGGACCGGUACGGCCGCCACUCGUCGAGGCGUUCAGUGAUGUUGAAAGCAUGA

>  <classification>
Yes

$$$$
>  <polymer_sequence>
CGUGAUGUAUGGCGGUUUGUCACUUAGGAUCAGGAUAUAUAAACAAAUAGAAGGGAUGGCGGAGUGAUGUUCCGCCGGCCGCCAU [FMN A Exl V8]

>  <classification>
Yes

$$$$
>  <polymer_sequence>
UGAUAGGACAGAAGGAGCGGUAGUGAUGUUGCCAAAAGGGUAAGGUGUCAAAAGACACCCUACCAGGUAGGUCGCUGUCCUAUCU

>  <classification>
No

$$$$
>  <polymer_sequence>
AACCGUGUGGCGGCCGCCACUAGUCUCCAGUGAUGUUGGAGAGACCACGUAAGUGGUCUCCGACAUAGGACCGGGCCAUAUGGAA [Same State - Tryptophan B (Freestyle 25)]

>  <classification>
Yes

$$$$
>  <polymer_sequence>
CCAACAACGAGUGAUGUUCGUUGAUCAGAAGGAGCGUCAAUAAUGACAGGUAGGUCGCUGAUAAUUGGAAAUAGGGCAAUAGCUU [Same State Arginine A GF12]

>  <classification>
Yes

$$$$
>  <polymer_sequence>
AGACUACCACACUGUCAAUAGACAGUGAGCUAGGAUAUGCUGAUAAGCAGAAGGAGUGAUGUUCCUUGGUAGUCAAUAAAAUAAU [FmnAX 13 G29+U67]

>  <classification>
Yes

$$$$
>  <polymer_sequence>
UGUACCGAGUCAGGAUAUGGCGUCGAAAGACGAAUUCUAGUGAUGUUAGGGAUCUGCGAAAGCAGUUCAGAAGGGACUUGGUACU [FmnBS 26 U36+U67]

>  <classification>
Yes

$$$$
>  <polymer_sequence>
GGAUAGGACAGAGGAUAUCCUAAAGAGGCAAGAAUAACUUGUCUCAAAUGGAUGACCAGUGAUGUUGGAGAAGGCUGUCCUAUCG [FmnBX 6 - #SwitchBubble #StaticStem]

>  <classification>
Yes

$$$$
